These measurements were taken from paper PMC9115913.

Molecular target: UniProt:Q7CRA4
Type: binding
Details: read-out: IC50 PBP1b; strain IU1945; average ± SEM of two experiments
# maps each entry to its IC50
Attribute measured: IC50 (nM)

Compound	Assay result
Cc1onc(-c2ccccc2Cl)c1C(=O)N[C@@H]1C(=O)N2[C@@H]1SC(C)(C)[C@@H]2C(=O)O	977
CC1(C)S[C@@H]2[C@H](NC(=O)[C@H](C(=O)O)c3ccsc3)C(=O)N2[C@H]1C(=O)O	1010
C[C@@H](O)[C@H]1C(=O)N2C(C(=O)O)=C(S[C@@H]3CN[C@H](C(=O)Nc4cccc(C(=O)O)c4)C3)[C@H](C)[C@H]12	137
N[C@@H](C(=O)N[C@@H]1C(=O)N2C(C(=O)O)=C(Cl)CS[C@H]12)c1ccccc1	8590
Cc1onc(-c2c(F)cccc2Cl)c1C(=O)N[C@@H]1C(=O)N2[C@@H]1SC(C)(C)[C@@H]2C(=O)O	17700
COCC1=C(C(=O)O)N2C(=O)[C@@H](NC(=O)/C(=N\OC)c3csc(N)n3)[C@H]2SC1	907
CC1(C)S[C@@H]2[C@H](NC(=O)[C@H](NC(=O)N3CCNC3=O)c3ccccc3)C(=O)N2[C@H]1C(=O)O	963
C=CC1=C(C(=O)O)N2C(=O)[C@@H](NC(=O)/C(=N\OCC(=O)O)c3csc(N)n3)[C@H]2SC1	8960
CC1(C)S[C@@H]2[C@H](NC(=O)C(C(=O)O)c3ccccc3)C(=O)N2[C@H]1C(=O)O (stereo partly drawn)	859
C[C@@H](O)[C@H]1C(=O)N2C(C(=O)O)=C(SCCN=CN)C[C@H]12	52
CO[C@@]1(NC(=O)C2SC(=C(C(N)=O)C(=O)O)S2)C(=O)N2C(C(=O)O)=C(CSc3nnnn3C)CS[C@@H]21 (stereo partly drawn)	538
Cc1onc(-c2c(Cl)cccc2Cl)c1C(=O)N[C@@H]1C(=O)N2[C@@H]1SC(C)(C)[C@@H]2C(=O)O	1140
CO/N=C(\C(=O)N[C@@H]1C(=O)N2C(C(=O)[O-])=C(C[n+]3cccc4c3CCC4)CS[C@H]12)c1csc(N)n1	24
CCOc1ccc2ccccc2c1C(=O)N[C@@H]1C(=O)N2[C@@H]1SC(C)(C)[C@@H]2C(=O)O	32400
C[C@@H](O)[C@H]1C(=O)N2C(C(=O)[O-])=C(SC3Cn4cnc[n+]4C3)[C@H](C)[C@H]12 (stereo partly drawn)	6820
